Procedure text: Inhibition of yeast alpha-glucosidase pre-incubated for 10 mins followed by pNPG substrate addition and measured every 30 secs for 35 mins
Parameters: species or system Saccharomyces cerevisiae
Provide the reported log10(IC50) of each item.
Short version: log10 scale, IC50, µM.

Compound	log10(IC50)
COc1ccc(-c2oc3cc(O)cc(O)c3c(=O)c2O[C@@H]2O[C@@H](C)[C@H](OC(=O)/C=C\c3ccc(O)cc3)[C@@H](O)[C@H]2OC(=O)/C=C\c2ccc(O)cc2)cc1	0.77
C[C@@H]1O[C@@H](Oc2c(-c3ccc(O)cc3)oc3cc(O)cc(O)c3c2=O)[C@H](OC(=O)/C=C\c2ccc(O)cc2)[C@H](O)[C@H]1OC(=O)/C=C/c1ccc(O)cc1	1.55
COc1ccc(-c2oc3cc(O)cc(O)c3c(=O)c2O[C@@H]2O[C@@H](C)[C@H](OC(=O)/C=C/c3ccc(O)cc3)[C@@H](O)[C@H]2OC(=O)/C=C\c2ccc(O)cc2)cc1	1.00
C[C@@H]1O[C@@H](Oc2c(-c3ccc(O)cc3)oc3cc(O)cc(O)c3c2=O)[C@H](OC(=O)/C=C/c2ccc(O)cc2)[C@H](O)[C@H]1OC(=O)/C=C/c1ccc(O)cc1	1.11
COc1ccc(-c2oc3cc(O)cc(O)c3c(=O)c2O[C@@H]2O[C@@H](C)[C@H](OC(=O)/C=C/c3ccc(O)cc3)[C@@H](O)[C@H]2OC(=O)/C=C/c2ccc(O)cc2)cc1	1.43
COc1ccc(-c2oc3cc(O)cc(O)c3c(=O)c2O[C@@H]2O[C@@H](C)[C@H](OC(=O)/C=C\c3ccc(O)cc3)[C@@H](O)[C@H]2OC(=O)/C=C/c2ccc(O)cc2)cc1	0.83
C[C@H]1O[C@H](O[C@H]2[C@H](O)[C@@H](O)[C@@H](O[C@H]3[C@H](O)[C@@H](O)C(O)O[C@@H]3CO)O[C@@H]2CO)[C@H](O)[C@@H](O)[C@@H]1N[C@H]1C=C(CO)[C@@H](O)[C@H](O)[C@H]1O (some centres undefined)	2.42
C[C@@H]1O[C@@H](Oc2c(-c3ccc(O)cc3)oc3cc(O)cc(O)c3c2=O)[C@H](OC(=O)/C=C/c2ccc(O)cc2)[C@H](O)[C@H]1OC(=O)/C=C\c1ccc(O)cc1	1.21

Kindly consider the entry below.
Req: What does the data say about its log10(IC50)? Entry: COc1ccc(-c2oc3cc(O)cc(O)c3c(=O)c2O[C@@H]2O[C@@H](C)[C@H](OC(=O)/C=C\c3ccc(O)cc3)[C@@H](O)[C@H]2OC(=O)/C=C/c2ccc(O)cc2)cc1O
Resp: 1.45

Source of measurements: ChEMBL document CHEMBL4330146
